Test system: Staphylococcus aureus S13E
Type: cell-based
ENDPOINT_LABEL: MIC (µg/mL)
Unit µg/mL implied. Number only.

Qu. GET /values?readout=MIC&system=Staphylococcus aureus S13E&item= CNC(CC(C)C)C(=O)NC1C(=O)NC(CC(N)=O)C(=O)NC2C(=O)NC3C(=O)NC(C(=O)NC(C(=O)O)c4cc(O)cc(O)c4-c4cc3ccc4O)C(OC3CC(C)(N)C(O)C(C)O3)c3ccc(c(Cl)c3)Oc3cc2cc(c3OC2OC(CO)C(O)C(O)C2OC2CC(C)(NCc3ccc(Nc4ccccc4)cc3)C(O)C(C)O2)Oc2ccc(cc2Cl)C1O (stereo not drawn)
Ans. 1

Qu. Entry to check: CNC(CC(C)C)C(=O)NC1C(=O)NC(CC(N)=O)C(=O)NC2C(=O)NC3C(=O)NC(C(=O)NC(C(=O)O)c4cc(O)cc(O)c4-c4cc3ccc4O)C(OC3CC(C)(N)C(O)C(C)O3)c3ccc(c(Cl)c3)Oc3cc2cc(c3OC2OC(CO)C(O)C(O)C2OC2CC(C)(NCc3c(OC)ccc4ccccc34)C(O)C(C)O2)Oc2ccc(cc2Cl)C1O (stereo not drawn)
Ans. 0.5

Qu. Entry to check: CNC(CC(C)C)C(=O)NC1C(=O)NC(CC(N)=O)C(=O)NC2C(=O)NC3C(=O)NC(C(=O)NC(C(=O)O)c4cc(O)cc(O)c4-c4cc3ccc4O)C(OC3CC(C)(N)C(O)C(C)O3)c3ccc(c(Cl)c3)Oc3cc2cc(c3OC2OC(CO)C(O)C(O)C2OC2CC(C)(NCC3CCC4CCCC43)C(O)C(C)O2)Oc2ccc(cc2Cl)C1O (stereo not drawn)
Ans. 0.125

Qu. Entry to check: CNC(CC(C)C)C(=O)NC1C(=O)NC(CC(N)=O)C(=O)NC2C(=O)NC3C(=O)NC(C(=O)NC(C(=O)O)c4cc(O)cc(O)c4-c4cc3ccc4O)C(OC3CC(C)(N)C(O)C(C)O3)c3ccc(c(Cl)c3)Oc3cc2cc(c3OC2OC(CO)C(O)C(O)C2OC2CC(C)(NCc3ccc(Sc4ccccc4)cc3)C(O)C(C)O2)Oc2ccc(cc2Cl)C1O (stereo not drawn)
Ans. 1

Qu. Entry to check: CCCCCCCCCCCCOc1ccc(CNC2(C)CC(OC3C(Oc4c5cc6cc4Oc4ccc(cc4Cl)C(OC4CC(C)(N)C(O)C(C)O4)C4NC(=O)C(NC(=O)C6NC(=O)C(CC(N)=O)NC(=O)C(NC(=O)C(CC(C)C)NC)C(O)c6ccc(c(Cl)c6)O5)c5ccc(O)c(c5)-c5c(O)cc(O)cc5C(C(=O)O)NC4=O)OC(CO)C(O)C3O)OC(C)C2O)cc1 (stereo not drawn)
Ans. 8

Qu. Entry to check: COc1ccc2nc(-c3ccccc3)cc(CNC3(C)CC(OC4C(Oc5c6cc7cc5Oc5ccc(cc5Cl)C(OC5CC(C)(N)C(O)C(C)O5)C5NC(=O)C(NC(=O)C7NC(=O)C(CC(N)=O)NC(=O)C(NC(=O)C(CC(C)C)N(C)Cc7cc(-c8ccccc8)nc8ccc(OC)cc78)C(O)c7ccc(c(Cl)c7)O6)c6ccc(O)c(c6)-c6c(O)cc(O)cc6C(C(=O)O)NC5=O)OC(CO)C(O)C4O)OC(C)C3O)c2c1 (stereo not drawn)
Ans. 16

Qu. Entry to check: CNC(CC(C)C)C(=O)NC1C(=O)NC(CC(N)=O)C(=O)NC2C(=O)NC3C(=O)NC(C(=O)NC(C(=O)O)c4cc(O)cc(O)c4-c4cc3ccc4O)C(OC3CC(C)(N)C(O)C(C)O3)c3ccc(c(Cl)c3)Oc3cc2cc(c3OC2OC(CO)C(O)C(O)C2OC2CC(C)(NCc3cc4ccccc4c4ccccc34)C(O)C(C)O2)Oc2ccc(cc2Cl)C1O (stereo not drawn)
Ans. 0.5

Qu. Entry to check: CC(C)CC(C(=O)NC1C(=O)NC(CC(N)=O)C(=O)NC2C(=O)NC3C(=O)NC(C(=O)NC(C(=O)O)c4cc(O)cc(O)c4-c4cc3ccc4O)C(OC3CC(C)(N)C(O)C(C)O3)c3ccc(c(Cl)c3)Oc3cc2cc(c3OC2OC(CO)C(O)C(O)C2OC2CC(C)(NCc3ccc4c(c3)CCCC4)C(O)C(C)O2)Oc2ccc(cc2Cl)C1O)N(C)Cc1ccc2c(c1)CCCC2 (stereo not drawn)
Ans. 2
